Molecular target: human PDE4B1 (Homo sapiens)
Construct: host or cells: Sf9 cells
Test: TR-FRET assay using the LANCE Ultra cAMP kit to determine the activity of hPDE4B1
Type: biochemical
Details: test concentration 1 μM, read-out: Inhibition in % (inhibition of PDE4B)
attribute.measured: inhibition at 1 µM (%)

CCc1ccnc(-c2cnc(-n3cc([S+](C)[O-])c4ccc(C(=O)N5CCCC5)cc43)nc2)c1 (stereo not shown); 93
CNCCN(C)C(=O)c1ccc2c([S+](C)[O-])cn(-c3ncc(-c4ccccc4F)cn3)c2c1 (stereo not shown); 87
CCc1ccnc(-c2cnc(-n3cc([S+](C)[O-])c4ccc(C(=O)N(C)C)cc43)nc2)c1 (stereo not shown); 92
C[S+]([O-])c1cn(-c2ncc(-c3cc(C#N)cs3)cn2)c2cc(C(=O)N3CCOCC3)ccc12 (stereo not shown); 95
C[S+]([O-])c1cn(-c2ncc(-c3cc(OC(F)(F)F)ccc3F)cn2)c2cc(C(=O)N3CCOCC3)ccc12 (stereo not shown); 97
C[S+]([O-])c1cn(-c2ncc(-c3cc(C(C)(C)O)ccn3)cn2)c2cc(C(=O)N3CCOCC3)ccc12 (stereo not shown); 93
CCOc1ccc(F)c(-c2cnc(-n3cc(S(C)(=O)=O)c4ccc(C(=O)N5CCOCC5)cc43)nc2)c1; 98

---

Biological target: human PDE4B1 (Homo sapiens, UniProt Q07343)
Construct: host or cells: Sf9 cells
Sequence (Q07343 whole entry): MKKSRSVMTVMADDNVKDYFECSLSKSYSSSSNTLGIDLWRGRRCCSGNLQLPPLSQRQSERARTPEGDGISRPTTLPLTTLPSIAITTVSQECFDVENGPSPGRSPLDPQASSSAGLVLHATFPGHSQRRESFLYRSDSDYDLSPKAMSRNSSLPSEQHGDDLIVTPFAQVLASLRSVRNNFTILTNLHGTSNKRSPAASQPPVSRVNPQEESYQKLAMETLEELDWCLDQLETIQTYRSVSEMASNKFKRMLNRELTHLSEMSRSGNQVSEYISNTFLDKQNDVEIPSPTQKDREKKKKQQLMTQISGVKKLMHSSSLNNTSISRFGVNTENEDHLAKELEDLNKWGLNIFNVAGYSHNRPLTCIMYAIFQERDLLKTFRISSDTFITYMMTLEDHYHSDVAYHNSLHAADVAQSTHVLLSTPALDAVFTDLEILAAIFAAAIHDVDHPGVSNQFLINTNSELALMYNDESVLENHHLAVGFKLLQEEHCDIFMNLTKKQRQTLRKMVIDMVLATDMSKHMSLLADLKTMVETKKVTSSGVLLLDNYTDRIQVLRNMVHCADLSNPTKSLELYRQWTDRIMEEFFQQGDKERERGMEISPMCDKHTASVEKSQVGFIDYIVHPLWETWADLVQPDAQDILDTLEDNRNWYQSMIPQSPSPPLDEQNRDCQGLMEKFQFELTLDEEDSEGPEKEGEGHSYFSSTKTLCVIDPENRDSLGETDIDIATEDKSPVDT
Experiment: TR-FRET assay using the LANCE Ultra cAMP kit to determine the activity of hPDE4B1
Type: biochemical
Details: test concentration 1 μM, read-out: Inhibition in % (inhibition of PDE4B)
attribute.measured: inhibition at 1 µM (%)

C[S+]([O-])c1cn(-c2ncc(-c3cc(NCC4CC4)ccn3)cn2)c2cc(C(=O)N3CCOCC3)ccc12 (stereo not shown); 97
CC(O)c1ccnc(-c2cnc(-n3cc([S+](C)[O-])c4ccc(C(=O)N5CCOCC5)cc43)nc2)c1 (stereo not shown); 90
C[S+]([O-])c1cn(-c2ncc(-c3ccccc3F)cn2)c2cc(C(=O)N3CCO[C@@H](CO)C3)ccc12 (stereo partly shown); 87
CCOc1ccnc(-c2cnc(-n3cc([S+](C)[O-])c4ccc(C(=O)N5CCOCC5)cc43)nc2)c1 (stereo not shown); 95

---

Biological target: human PDE4B1 (Homo sapiens, UniProt Q07343)
Construct: host or cells: Sf9 cells
Experiment: cAMP HTRF assay to determine the activity of hPDE4B1
Assay type: biochemical
Conditions: inhibition of PDE4B at a test concentration of 1 μM
attribute.measured: inhibition at 1 µM (%)

CS(=O)(=O)c1cn(-c2ncc(-c3ccccc3F)cn2)c2cc(C(=O)N3C[C@H]4C[C@@H]3CO4)ccc12; 32
CN(C)CCN(C)C(=O)c1ccc2c([S+](C)[O-])cn(-c3ncc(-c4ccccc4F)cn3)c2c1 (centres unmarked); 40
COc1ccc(-c2cnc(-n3cc([S+](C)[O-])c4ccc(C(=O)N5CCOCC5)cc43)nc2)cc1 (centres unmarked); 88
C[S+]([O-])c1cn(-c2ncc(-c3ccccc3F)cn2)c2cc(C(=O)N3CCOCC3)ccc12 (single isomer, unassigned) [Example 165]; 105
C[S+]([O-])c1cn(-c2ncc(-c3ccccc3)cn2)c2cc(C(=O)N3CCOCC3)ccc12 (single isomer, unassigned) [Example 163]; 104

(P) C[S+]([O-])c1cn(-c2ncc(-c3ccccc3)cn2)c2cc(C(=O)N3C[C@@H]4C[C@H]3CN4)ccc12 (some centres unmarked)
(Q) CC1CC(C)CN(C(=O)c2ccc3c([S+](C)[O-])cn(-c4ncc(-c5ccccc5F)cn4)c3c2)C1 (single isomer, unassigned)
Could you determine which record has the numerically smaller inhibition at 1 µM? Candidates: P and Q Please reply using the label of the selected record. Q

---

Molecular target: human PDE4B1 (Homo sapiens)
Construct: host or cells: Sf9 cells
Test: cAMP HTRF assay to determine the activity of hPDE4B1
Type: biochemical
Conditions: inhibition of PDE4B at a test concentration of 1 μM, 1 µM
Description: Biological Testing cAMP HTRF® Assay to Determine the Activity of hPDE4B1 The inhibiting effect of the compounds on the enzyme activity of human PDE4B1 was measured by the quantification of 5′-adenosine monophosphate (5′-AMP), which is formed from 3′,5′-cyclic adenosine monophosphate (cAMP). Human recombinant enzyme, expressed in Sf9 cells, and the HTRF (homogeneous time-resolved fluorescence) detection method were used in the assay. […]
attribute.measured: Inhibition in % (%)

CC1CN(C(=O)c2ccc3c([S+](C)[O-])cn(-c4ncc(-c5ccccc5F)cn4)c3c2)CC(C)O1 (single isomer, unassigned) [Example 377]; 70
COC1CCN(C(=O)c2ccc3c([S+](C)[O-])cn(-c4ncc(-c5ccccc5F)cn4)c3c2)CC1 (centres unmarked) [Example 72]; 33
COc1cccc(-c2cnc(-n3cc([S+](C)[O-])c4ccc(C(=O)N5CCOCC5)cc43)nc2)c1 (single isomer, unassigned) [Example 158]; 104

(P) Cc1cccc(-c2cnc(-n3cc([S+](C)[O-])c4ccc(C(=O)N5CCOCC5)cc43)nc2)c1 (single isomer, unassigned)
(Q) COC1CCN(C(=O)c2ccc3c([S+](C)[O-])cn(-c4ncc(-c5ccccc5F)cn4)c3c2)CC1 (centres unmarked) [Example 381]
Between the entries labeled P and Q , whose measured Inhibition in % is lower? Give the label under which the chosen entry appears. Q

---

The following compounds are shown together with reported melting point values.

Observe how each entry below is paired with its result.
C[S+]([O-])c1cn(-c2ncc(-c3ccccc3C#N)cn2)c2cc(C(=O)N3CCNCC3)ccc12 (centres unmarked); 230 to 235 °C
CS(=O)(=O)c1cn(-c2ncc(-c3ccc(F)cc3F)cn2)c2cc(C(=O)N3CCOCC3)ccc12; 247 to 252 °C
C[S+]([O-])c1cn(-c2ncc(-c3ccc(F)cn3)cn2)c2cc(C(=O)N3CCOCC3)ccc12 (centres unmarked); 244 to 248 °C
Cc1csc(-c2cnc(-n3cc([S+](C)[O-])c4ccc(C(=O)N5CCOCC5)cc43)nc2)c1 (centres unmarked); 232 to 235 °C

Need melting point, item CS(=O)(=O)c1cn(-c2ncc(-c3cc(C#N)ccc3F)cn2)c2cc(C(=O)N3CCNCC3)ccc12 279 to 283 °C

---

Biological target: human PDE4B1 (Homo sapiens, UniProt Q07343)
Construct: host or cells: Sf9 cells
Assay: cAMP HTRF assay to determine the activity of hPDE4B1
Type: biochemical
Details: inhibition of PDE4B at a test concentration of 1 μM
attribute.measured: inhibition at 1 µM (%)

C[C@H]1CN(C(=O)c2ccc3c([S+](C)[O-])cn(-c4ncc(-c5ccccc5F)cn4)c3c2)CCO1 (stereo partly shown); 115
C[S+]([O-])c1cn(-c2ncc(-c3ccccc3F)cn2)c2cc(C(=O)N3CC[C@H](O)C3)ccc12 (stereo partly shown); 47
Cc1cccc(-c2cnc(-n3cc(S(C)(=O)=O)c4ccc(C(=O)N5CCNC(=O)C5)cc43)nc2)c1; 91

(P) CC[S+]([O-])c1cn(-c2ncc(-c3ccccc3F)cn2)c2cc(C(=O)N3CCOCC3)ccc12 (stereo not shown)
(Q) CN(CC(C)(C)O)C(=O)c1ccc2c([S+](C)[O-])cn(-c3ncc(-c4ccccc4F)cn3)c2c1 (stereo not shown)
(R) CN(C)C1CCN(C(=O)c2ccc3c([S+](C)[O-])cn(-c4ncc(-c5ccccc5F)cn4)c3c2)CC1 (stereo not shown)
(S) C[S+]([O-])c1cn(-c2ncc(-c3ccccc3F)cn2)c2cc(C(=O)N3CC4CC3CN4)ccc12 (stereo not shown)
Kindly order the items shown according to inhibition at 1 µM, from the highest value down. Arrange the labels as the request states and list them. S, P, Q, R
(S: 114%, P: 57%, Q: 38%, R: 8%)

(I) C[S+]([O-])c1cn(-c2ncc(-c3ccccc3F)cn2)c2cc(C(=O)N3CCCCCC3)ccc12 (stereo not shown)
(II) Cc1cccc(-c2cnc(-n3cc([S+](C)[O-])c4ccc(C(=O)N5CCNC(=O)C5)cc43)nc2)c1 (single isomer, unassigned)
I or II : whose inhibition at 1 µM is greater? Answer = label. II
(II: 110%, I: 73%)

---

Target: human PDE4B1 (Homo sapiens, UniProt Q07343)
Construct: host or cells: Sf9 cells
Assay: cAMP HTRF assay to determine the activity of hPDE4B1
Assay type: biochemical
Details: inhibition of PDE4B at a test concentration of 1 μM
attribute.measured: inhibition at 1 µM (%)

Examples with their reported inhibition at 1 µM follow.
C[C@@H]1CN(C(=O)c2ccc3c([S+](C)[O-])cn(-c4ncc(-c5ccccc5F)cn4)c3c2)CCO1 (stereo partly drawn); 106
C[S+]([O-])c1cn(-c2ncc(-c3ccc(C(N)=O)cc3F)cn2)c2cc(C(=O)N3CCOCC3)ccc12 (stereo not drawn); 94
C[S+]([O-])c1cn(-c2ncc(-c3cccnc3F)cn2)c2cc(C(=O)N3CCOCC3)ccc12 (stereo not drawn); 63

(a) C[S+]([O-])c1cn(-c2ncc(-c3ccccn3)cn2)c2cc(C(=O)N3C[C@@H]4C[C@H]3CN4)ccc12 (stereo partly drawn)
(b) C[S+]([O-])c1cn(-c2ncc(-c3ccncc3)cn2)c2cc(C(=O)N3CCOCC3)ccc12 (stereo not drawn)
(c) C[S+]([O-])c1cn(-c2ncc(-c3ccccc3F)cn2)c2cc(C(=O)N3CCS(=O)(=O)CC3)ccc12 (stereo not drawn)
(d) C[S+]([O-])c1cn(-c2ncc(-c3ccccc3F)cn2)c2cc(C(=O)N3CCC4(CC3)COC4)ccc12 (stereo not drawn)
# ascending order, key=inhibition at 1 µM Ranked list of labels, please, in the requested order. d, c, b, a
